Documented H2 permeability across a set of compounds
Assay Endpoint: H2 permeability (Barrer)

INSERT INTO assay_data (compound, assay_endpoint, readout_units, observed_result) VALUES
  ('*OC1OC(OC(C)=O)C(*)C(O)C1OC(C)=O (repeat unit)', 'H2 permeability', 'Barrer', 12),
  ('*C(C(=O)OC1CCCCC1)C(*)C(=O)OC(C)(C)C (repeat unit)', 'H2 permeability', 'Barrer', 72),
  ('*Oc1ccc(C(c2ccc(OC(*)=O)cc2)(C(F)(F)F)C(F)(F)F)cc1 (repeat unit)', 'H2 permeability', 'Barrer', 27),
  ('*Oc1c(C)cc(C(C)(C)c2cc(C)c(OC(=O)c3cccc(C(*)=O)c3)c(Br)c2)cc1Br (repeat unit)', 'H2 permeability', 'Barrer', 23.3),
  ('*Oc1c(C)cc(-c2cc(C)c(Oc3ccc(S(=O)(=O)c4ccc(*)cc4)cc3)c(C)c2)cc1C (repeat unit)', 'H2 permeability', 'Barrer', 11.1),
  ('*c1ccc(N2C(=O)c3ccc(C(c4ccc5c(c4)C(=O)N(*)C5=O)(C(F)(F)F)C(F)(F)F)cc3C2=O)cc1 (repeat unit)', 'H2 permeability', 'Barrer', 107),
  ('*Oc1ccc(C(C)(C)c2ccc(Oc3ccc(S(=O)(=O)c4ccc(*)cc4)cc3)c(C)c2)cc1C (repeat unit)', 'H2 permeability', 'Barrer', 11),
  ('*C(=C(*)c1ccc2c(c1)CCC2)c1ccccc1 (repeat unit)', 'H2 permeability', 'Barrer', 360);

###

Documented CH4 permeability across a set of compounds
Assay Endpoint: CH4 permeability (Barrer)

INSERT INTO measurements (compound, assay_endpoint, readout_units, observed_result) VALUES
  ('*Oc1ccc(S(=O)(=O)c2ccc(Oc3ccc(C(C)(C)c4cccc(*)c4)cc3)cc2)cc1 (repeat unit)', 'CH4 permeability', 'Barrer', 0.0432),
  ('*c1ccc(Cc2ccc(-n3c(=O)c4cc5c(=O)n(*)c(=O)c5cc4c3=O)cc2)cc1 (repeat unit)', 'CH4 permeability', 'Barrer', 0.0576),
  ('*c1cc(C(=O)OCCC(F)(F)C(F)(F)C(F)(F)C(F)(F)C(F)(F)C(F)(F)F)cc(N2C(=O)c3ccc(C(c4ccc5c(c4)C(=O)N(*)C5=O)(C(F)(F)F)C(F)(F)F)cc3C2=O)c1 (repeat unit)', 'CH4 permeability', 'Barrer', 0.44);

###

Documented N2 permeability across a set of molecules
Assay Endpoint: N2 permeability (Barrer)

INSERT INTO assay_data (molecule, assay_endpoint, observed_result) VALUES
  ('*/C(C)=C(/*)[Si](C)(C)CCCC (repeat unit)', 'N2 permeability', 8),
  ('*c1cc(C(=O)OCCC(F)(F)C(F)(F)C(F)(F)C(F)(F)C(F)(F)C(F)(F)F)cc(N2C(=O)c3ccc(C(c4ccc5c(c4)C(=O)N(*)C5=O)(C(F)(F)F)C(F)(F)F)cc3C2=O)c1 (repeat unit)', 'N2 permeability', 0.74),
  ('*c1ccc(Oc2ccc(S(=O)(=O)c3ccc(Oc4ccc(N5C(=O)c6ccc(-c7ccc8c(c7)C(=O)N(*)C8=O)cc6C5=O)cc4)cc3)cc2)cc1 (repeat unit)', 'N2 permeability', 0.0544),
  ('*c1ccc(C(C)(C)c2ccc(N3C(=O)c4ccc(C(c5ccc6c(c5)C(=O)N(*)C6=O)(C(F)(F)F)C(F)(F)F)cc4C3=O)cc2)cc1 (repeat unit)', 'N2 permeability', 1.34),
  ('*C(=O)c1ccc(C2(c3ccc(C(=O)c4ccc(Oc5ccc(C(=O)c6ccc(C(=O)c7ccc(Oc8ccc(*)cc8)cc7)cc6)cc5)cc4)cc3)OC(=O)c3ccccc32)cc1 (repeat unit)', 'N2 permeability', 0.0729),
  ('*Oc1c(Br)cc(C(c2cc(Br)c(OC(=O)c3cc(C(*)=O)cc(C(C)(C)C)c3)c(Br)c2)(C(F)(F)F)C(F)(F)F)cc1Br (repeat unit)', 'N2 permeability', 4.47);
